assayedTarget: Acetylcholinesterase (Homo sapiens) (UniProt P22303)
Sequence (P22303 whole entry, looked up): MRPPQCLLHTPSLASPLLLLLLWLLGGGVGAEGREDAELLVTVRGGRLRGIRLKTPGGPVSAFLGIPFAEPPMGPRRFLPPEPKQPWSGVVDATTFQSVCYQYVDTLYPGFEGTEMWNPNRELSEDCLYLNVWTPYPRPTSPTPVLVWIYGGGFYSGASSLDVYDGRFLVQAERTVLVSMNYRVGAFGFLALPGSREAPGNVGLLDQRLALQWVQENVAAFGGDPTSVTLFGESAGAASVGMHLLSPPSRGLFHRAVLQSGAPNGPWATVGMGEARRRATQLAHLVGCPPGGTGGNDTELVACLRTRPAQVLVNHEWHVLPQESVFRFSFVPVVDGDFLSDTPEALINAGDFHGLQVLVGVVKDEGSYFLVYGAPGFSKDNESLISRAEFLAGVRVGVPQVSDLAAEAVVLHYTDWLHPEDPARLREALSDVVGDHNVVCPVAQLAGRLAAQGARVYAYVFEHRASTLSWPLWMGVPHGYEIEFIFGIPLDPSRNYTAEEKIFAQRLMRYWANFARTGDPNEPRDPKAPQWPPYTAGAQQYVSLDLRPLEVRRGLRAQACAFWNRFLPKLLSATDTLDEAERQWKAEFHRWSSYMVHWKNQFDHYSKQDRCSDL
assayRemarks: Acetylcholinesterase (AChE) small molecule antagonists: enzyme-based qHTS assay with human liver microsomes (AID 1347399); further: nearly all actives have a fitted effect of over 60% in size
testContext: qHTS inhibition; series mostly up to 115 µM
Active and inactive are the calls of the source. The call rests on the fitted dose curve.
endpoint: outcome

Would you please look over these solved cases?
[[record]]
molecule = "CCc1cccc(CC)c1N"
endpoint = "outcome"
measurement = "inactive"

[[record]]
molecule = "CCCCCCCCC/C=C/CC1CC(=O)OC1=O (configuration not stated)"
endpoint = "outcome"
measurement = "inactive"

[[record]]
molecule = "CC(=O)N/N=C/c1ccc([N+](=O)[O-])o1"
endpoint = "outcome"
measurement = "inactive"

[[record]]
molecule = "Cc1nc2ccccc2c(=O)o1"
endpoint = "outcome"
measurement = "inactive"

[[record]]
molecule = "COc1cc(C(=S)N2CCOCC2)cc(OC)c1OC"
endpoint = "outcome"
measurement = "inactive"


Reported outcome of CC[C@H](c1ccc(O)cc1)[C@@H](CC)c1ccc(O)cc1 : inactive

// field: outcome; key: C=C(C)C1CC=C(C)CC1 (configuration not stated) ; value = inactive

// field: outcome; key: C=C(C)c1cccc(C(C)(C)N=C=O)c1 ; value = inactive

Notebook: COc1cc(C(=O)N2CCOCC2)cc(OC)c1OC , outcome read as inactive

Reported outcome ( CC(C)Nc1cccnc1N1CCN(C(=O)c2cc3cc(NS(C)(=O)=O)ccc3[nH]2)CC1 ) = inactive

----------
assayedTarget: Acetylcholinesterase (Homo sapiens) (UniProt P22303)
assayRemarks: Acetylcholinesterase (AChE) small molecule antagonists: fluorescence cell-based qHTS assay (AID 1347398); further: nearly all actives have a fitted effect of over 50% in size
testContext: SH-SY5Y cells; AChE activity; series mostly up to 115 µM
Text: National Center for Advancing Translational Sciences [NCATS] Division of Preclinical Innovation [DPI] U.S. Environmental Protection Agency [EPA] National Institutes of Environmental Health Sciences [NIEHS] National Toxicology Program [NTP] […] A homogenous cell-based assay using Amplitetrade mark Fluorimetric Acetylcholinesterase Assay Kit *Green Fluorescence* (AAT Bioquest, Sunnyvale, CA) was used to evaluate the chemicals in the Tox21 10K library that inhibit AChE activity. […]
Results filed as inconclusive are left out. Active and inactive are the calls of the source. Calls follow the shape of the full dose curve.
Can you answer with just one of these options? active, inactive

[[record]]
molecule = "O=C1OCCO1"
assignedlabel = "inactive"

[[record]]
molecule = "Cc1cc(C2CCCCC2)n(O)c(=O)c1"
assignedlabel = "inactive"

[[record]]
molecule = "CCCC1O[C@@H]2C[C@H]3[C@@H]4CCC5=CC(=O)C=C[C@]5(C)[C@H]4[C@@H](O)C[C@]3(C)[C@]2(C(=O)CO)O1 (stereo partly specified)"
assignedlabel = "inactive"

[[record]]
molecule = "Cc1cc(F)ccc1-c1cc(N2CC[C@@H](O)[C@H]2CO)ncc1N(C)C(=O)C(C)(C)c1cc(C(F)(F)F)cc(C(F)(F)F)c1"
assignedlabel = "inactive"

[[record]]
molecule = "CC1(C)OC[C@@H]2O[C@@]3(C(=O)O)OC(C)(C)O[C@H]3[C@@H]2O1"
assignedlabel = "inactive"


Just curious, what result did CCOC(=O)c1c(N)sc2c1CCN(Cc1ccccc1)C2 get here? active

I would be grateful if you could indicate the recorded call for CC(C)c1ccc2sc3ccccc3c(=O)c2c1 . inactive

Call for entry CC1CCCNC1 (stereo unspecified) : inactive

Name the outcome recorded for CC(N)C12CC3CC(CC(C3)C1)C2 (stereo unspecified) in the assay. inactive

Which result was noted for this molecule in the test: c1ccc2n[nH]nc2c1 inactive

What classification did O=C(CCCCCCCCc1cccnc1)N1CCC(C=C(c2ccccc2)c2ccccc2)CC1 end up with in this test? inactive

Values were extracted from PubChem BioAssay (Tox21).
